- method: amyloid nucleation score (Sup35N fusion, yeast selection) (log enrichment); library NNK1; higher = more nucleation; inactive = no reads after selection;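 note: zero at mode of non-aggregating sequences after 7 days selection at 30°C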
Entry flag: 1 if amyloid nucleation score reaches -0.3; -1 if it does not.

Example entries begin here.
QFGWFWFLNYALQDFDN; -1
NIHGDGWSYVLNAIGSELD; 1
RYPSLLWIFDFNYLLYLRFQ; -1
ILYTNRMCLWSKTSNFLPLR; -1
FFLEAACYSIFGVEK; -1
RTMHVRFDIRKVALKIFKFY; 1
LRRGKLDLDHPLVNKWRKKG; 1
SLDDPFRENCLLESFSLMLS; -1
LVCSLTDNYDEE; 1
WSYAIKAISSMGAVTDASRM; 1

Exam item: Decide: is the reported value of amyloid nucleation score for LLLLVRFYGSGSPHSGAEPI equal to or greater than -0.3?
Marked response: -1

Exam item: Decide: is the reported value of amyloid nucleation score for SEWSRKGVYNACLITG equal to or greater than -0.3?
Marked response: 1

Exam item: Decide: is the reported value of amyloid nucleation score for RGMGVAWAYLSSNTRPRRLN equal to or greater than -0.3?
Marked response: 1

Exam item: Decide: is the reported value of amyloid nucleation score for GFYFSYSWVRRSRNSKSMAS equal to or greater than -0.3?
Marked response: 1

Exam item: Decide: is the reported value of amyloid nucleation score for TEIIFYLVYGWLTFRILGYN equal to or greater than -0.3?
Marked response: -1

* * *

Listing of recorded amyloid nucleation score by entry.
- method: amyloid nucleation score (Sup35N fusion, yeast selection) (log enrichment); library NNK2; higher = more nucleation; inactive = no reads after selection

Data point: SPGIITCGYKLLDG ; amyloid nucleation score = 1.69

Data point: KVGNGRDCIMLTVSCA ; amyloid nucleation score = 0.748

Data point: KSMLLMIMSSFGSDIWHITS ; amyloid nucleation score = -0.337

* * *

- method: amyloid nucleation score (Sup35N fusion, yeast selection) (log enrichment); library NNK3; higher = more nucleation; inactive = no reads after selection
measureName: amyloid nucleation score

Worked examples, 5 substances total:
NMGWSSSYH; inactive
FVNVKFQTLCNYIWCTSPYE; 2.9
NCMFWGCVTLRADFVRTINR; 1.5
LAWCVLSKPRDRYSGVTSTL; inactive
VYMNGIKVKDGLSTYWVPRE; -0.161

In the following, a different substance is considered.
Data point: QNFRIYTVSLLNNRYDELIS ; amyloid nucleation score = inactive

* * *

- method: amyloid nucleation score (Sup35N fusion, yeast selection) (log enrichment); library NNK1; higher = more nucleation; inactive = no reads after selection
Entry flag: Condition met if amyloid nucleation score reaches 0.04; Condition not met if it does not.

IWLKWCNSPLVRLSMGNSSF; Condition met

Exam item: Decide: is the reported value of amyloid nucleation score for VGSKVYMTSAAMYFVNRGFV equal to or greater than 0.04?
Marked response: Condition met

Exam item: Decide: is the reported value of amyloid nucleation score for NPSFNPWNDHHYCTSGMCML equal to or greater than 0.04?
Marked response: Condition met

Exam item: Decide: is the reported value of amyloid nucleation score for HAHVQCGESE equal to or greater than 0.04?
Marked response: Condition met

* * *

- method: amyloid nucleation score (Sup35N fusion, yeast selection) (log enrichment); library NNK2; higher = more nucleation; inactive = no reads after selection
measureName: amyloid nucleation score
Form rule: numeric answer, no unit written next to it.

Worked examples, 5 substances total:
FRSNSDLISFERASFR; -1.62
WCLGSMVTHYYLATNSSGYC; 3.64
SMNVYVDGFCWLAHVLNVVW; 6.93
SALSLICDRWFDCFLRGTQY; 3.66
RMNFLA; -0.145

Data point: GDTYMGVYANLVMLALYGPG ; amyloid nucleation score = 5.2

Data point: TVFRFNIYDYFFVM ; amyloid nucleation score = 4.27

Data point: IAFKLRSTLSQPRNTCVLWH ; amyloid nucleation score = 0.276

* * *

- method: amyloid nucleation score (Sup35N fusion, yeast selection) (log enrichment); library NNK2; higher = more nucleation; inactive = no reads after selection
measureName: amyloid nucleation score
Form rule: numeric answer, no unit written next to it.

Worked examples, 5 substances total:
SCIYLGVLRKVCMRFIMVIV; -1.03
RQVAPMHLYIYSACNGAKNR; 7.09
RNYLNMVYGLFFCIHCSCFS; 5.85
SCFGRKLLLLDGA; 0.203
WYRLLGFAMD; -0.603

In the following, a different substance is considered.
Data point: LANFGIIVWCCTCFYDD ; amyloid nucleation score = 8.27

* * *

- method: amyloid nucleation score (Sup35N fusion, yeast selection) (log enrichment); library NNK3; higher = more nucleation; inactive = no reads after selection
measureName: amyloid nucleation score
Form rule: numeric answer, no unit written next to it.

WLGMCPLLTVVLTGIFLTPF; 0.487

In the following, a different sequence is considered.
Data point: DGDIVDSG ; amyloid nucleation score = -0.616

* * *

- method: amyloid nucleation score (Sup35N fusion, yeast selection) (log enrichment); library NNK3; higher = more nucleation; inactive = no reads after selection
measureName: amyloid nucleation score

Worked examples, 4 sequences total:
SLMYKWKEGSQDGYCWAW; 0.824
SLIDHYLSDLSKKS; inactive
EVPTRLDKMNENCNREDSAP; inactive
SLTVKFSLLKGESQVDHFVS; -0.158

Data point: WMMDEMLVFLTH ; amyloid nucleation score = inactive

Data point: DNLFSETSYVVRFARFL ; amyloid nucleation score = inactive

Data point: QNGDKHYG ; amyloid nucleation score = inactive

Data point: VVMWAPLRYDFKSKDRAVES ; amyloid nucleation score = inactive

Data point: DVLGVSSASERAFGFENRAL ; amyloid nucleation score = inactive

Data point: IAYNMCEIYVRVCYYFPIIC ; amyloid nucleation score = inactive

* * *

- method: amyloid nucleation score (Sup35N fusion, yeast selection) (log enrichment); library NNK2; higher = more nucleation; inactive = no reads after selection
Field: class. Source value: amyloid nucleation score. Ranges: c1 (below 0.5), c2 (0.5 to below 2), c3 (2 or more)

Example entries begin here.
PVLTYFKLQLMM; c3
SLNISCYWHLKFVMRAWHTW; c1
RCILASAGWAIVGKNCEAPQ; c2
SNSHNSRSIAY; c1
VMDCLMLSNMHLYIVLESKS; c3
YAFIILISCFLTDDSTIGVY; c1

Exam item: Entry VFLLTLRCCWEFVLCADGP belongs to which category?
Marked response: c2

Exam item: Entry QVWPLCLVAGSSFGRRGVTG belongs to which category?
Marked response: c2

Exam item: Entry VCGWFHGHWGTWWDVQQRKR belongs to which category?
Marked response: c3

* * *

- method: amyloid nucleation score (Sup35N fusion, yeast selection) (log enrichment); library NNK3; higher = more nucleation; inactive = no reads after selection
measureName: amyloid nucleation score

Worked examples, 5 substances total:
TASWVLFVAVVCICLTLFSY; 0.85
SMFYMRFHVQ; inactive
SFCECFQSSKSCKIWTVWIV; inactive
CLVVKLFHTSSCMNSYMRGG; 1.67
RSPRFLRELVLGCSNCWFCG; inactive

Data point: YTFRMYGLMDNLHCAPWF ; amyloid nucleation score = inactive

Data point: MSEFSQCRFKSHTFFVTSNR ; amyloid nucleation score = inactive

Data point: FHIPLSQRCLAPFCNAHL ; amyloid nucleation score = inactive

* * *

- method: amyloid nucleation score (Sup35N fusion, yeast selection) (log enrichment); library NNK1; higher = more nucleation; inactive = no reads after selection
measureName: amyloid nucleation score
Form rule: numeric answer, no unit written next to it.

Worked examples, 3 substances total:
SWRTCAPTWKVALFIWMCTS; 3.39
GAGHGELDKWNPSDGPQLLW; -0.096
RCSFFSYCVNDAS; 3.55

Data point: TLHKFCLSGVHSFVGVTNST ; amyloid nucleation score = 0.06

Data point: VSNTWYLTVNLFLYIIPCN ; amyloid nucleation score = 6.75

Data point: RKNFMGSEFVLDNILCLFLL ; amyloid nucleation score = 7.58

* * *

- method: amyloid nucleation score (Sup35N fusion, yeast selection) (log enrichment); library NNK2; higher = more nucleation; inactive = no reads after selection
Entry flag: class 1 if amyloid nucleation score reaches 0.03; class 0 if it does not.

Example entries begin here.
NFSVNCLYNWARYACFLKGM; class 1
DDVKDNVYGSVEALKPRSG; class 1
RLSLGKGAVTDT; class 1
VRSSPTRVRERRSIILVLNC; class 1
LHFGAGLTSSVCPSLYSQ; class 0
PCLMVIRRWMITVFYQKLSG; class 1
GLRHGLCRSLLY; class 0
PKSHFSRFGYYKVFQRSGRS; class 0

Exam item: Decide: is the reported value of amyloid nucleation score for RFFSMVTR equal to or greater than 0.03?
Marked response: class 0

* * *

- method: amyloid nucleation score (Sup35N fusion, yeast selection) (log enrichment); library NNK2; higher = more nucleation; inactive = no reads after selection
measureName: amyloid nucleation score

VILRVIGIIMRDNKFSHDVR; inactive
SNHLIVMISVFYFKSVRI; inactive
LLCVGHFFLQ; inactive

All figures here come from the supplement of paper PMC12042874.
